B1: CD2-associated protein, residues 271 to 331; numbered along this chain, Q9Y5K6 (parent)
chain: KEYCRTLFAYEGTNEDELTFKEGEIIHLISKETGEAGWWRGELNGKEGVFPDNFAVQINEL

Variants of: B1
ASSAY_COMMENT: abundance fitness (aPCA) (normalised: wild type 0, dead -1); higher = more abundant; growth selection in yeast, the domain comes from the species named
APPLIED_CONDITIONS: Homo sapiens
Give abundance fitness for every item shown.
Please state the value as a number alone, without comment.

QUERY: For the variant shown here, `N59I` , give the reported abundance fitness.
RESULT: -0.702

QUERY: For the variant shown here, `E42T` , give the reported abundance fitness.
RESULT: -0.185

QUERY: For the variant shown here, `G34F` , give the reported abundance fitness.
RESULT: -0.491

QUERY: For the variant shown here, `Y10F` , give the reported abundance fitness.
RESULT: -0.182

QUERY: For the variant shown here, `E42N` , give the reported abundance fitness.
RESULT: -0.078

QUERY: For the variant shown here, `F50T` , give the reported abundance fitness.
RESULT: -0.705

QUERY: For the variant shown here, `H27E` , give the reported abundance fitness.
RESULT: 0.093

QUERY: For the variant shown here, `E11L` , give the reported abundance fitness.
RESULT: -0.377

QUERY: For the variant shown here, `A36K` , give the reported abundance fitness.
RESULT: -0.008

QUERY: For the variant shown here, `E60K` , give the reported abundance fitness.
RESULT: 0.03

QUERY: For the variant shown here, `E22S` , give the reported abundance fitness.
RESULT: -0.119

QUERY: For the variant shown here, `A36D` , give the reported abundance fitness.
RESULT: -0.082

QUERY: For the variant shown here, `N59K` , give the reported abundance fitness.
RESULT: -0.274

QUERY: For the variant shown here, `R40H` , give the reported abundance fitness.
RESULT: -0.296

QUERY: For the variant shown here, `V49E` , give the reported abundance fitness.
RESULT: -0.674

QUERY: For the variant shown here, `K31T` , give the reported abundance fitness.
RESULT: -0.024

QUERY: For the variant shown here, `I58S` , give the reported abundance fitness.
RESULT: -0.233

QUERY: For the variant shown here, `R40W` , give the reported abundance fitness.
RESULT: -0.377

QUERY: For the variant shown here, `L43R` , give the reported abundance fitness.
RESULT: -0.214

QUERY: For the variant shown here, `V56K` , give the reported abundance fitness.
RESULT: -0.05

QUERY: For the variant shown here, `E15M` , give the reported abundance fitness.
RESULT: -0.23

QUERY: For the variant shown here, `A9L` , give the reported abundance fitness.
RESULT: -0.599
